- Test system: UACC-62 melanoma
- test description: NCI tumour cell line growth inhibition, 48 h

compound: CCCCCCCC(=O)[O-].CCCCCCCC(=O)[O-].N.N.N.N.[Co+3].[O-][Cl+3]([O-])([O-])[O-]
assay target: UACC-62 melanoma
TGI: > 100 µM
--
compound: COc1cc(Cl)c(CC(=O)c2c[nH]c3ccccc23)cc1OC
assay target: UACC-62 melanoma
TGI: > 100 µM
--
compound: Cc1c(Nc2nccc3cc(CN4CC[C@@H](O)C4)cnc23)cccc1-c1cccc(-c2nc3cc(CN4CC[C@@H](C(=O)O)C4)cc(C#N)c3o2)c1C
assay target: UACC-62 melanoma
TGI: 38.1 µM
--
compound: CC(c1ccccc1)n1cncc1C(=O)NN1CCN(C)CC1 (stereo unspecified)
assay target: UACC-62 melanoma
TGI: > 10 µM
--
compound: COC(=O)c1onc(C2OC(C)(C)OC2C(O)COC(c2ccccc2)(c2ccccc2)c2ccccc2)c1C(=O)OC (stereo unspecified)
assay target: UACC-62 melanoma
TGI: > 100 µM
--
compound: O=C1C=CC(=O)c2c1ccc1c3ccccc3n(Cc3ccccc3)c21
assay target: UACC-62 melanoma
TGI: 67.8 µM

---

- System: A549 NSCLC
- test description: NCI tumour cell line growth inhibition, 48 h
Each entry below lists one item and its recorded TGI value.

compound: Cc1nc(C)c(N2CCN(CN)CC2)c(=O)[nH]1
TGI: > 100 µM
--
compound: Cc1nc(NS(=O)(=O)c2ccc(NCN3C(=O)c4ccccc4C3=O)cc2)oc1C
TGI: > 100 µM
--
compound: COc1cc(S(=O)(=O)Nc2nc(-c3ccc(N4C(=O)C(C)SC4c4ccccc4O)cc3)cs2)ccc1Cl (stereo not drawn)
TGI: > 100 µM
--
compound: CN1CCN(Cc2ccc(NC(=O)c3[nH]ncc3Nc3ncnc4[nH]ccc34)cc2)CC1
TGI: 10.8 µM
--
compound: N#C/C(=C/N1CCN(C(=O)c2ccco2)C1=S)C(=O)Nc1ccc(Cl)cc1
TGI: > 50 µM
--
compound: O=C1CC(C2(O)C(=O)Nc3ccc([N+](=O)[O-])cc32)c2ccccc21 (stereo not drawn)
TGI: > 100 µM
--
compound: COC1=C(OC)C(=O)C(C/C=C(\C)CC/C=C(\C)CC/C=C(\C)CC/C=C(\C)CC/C=C(\C)CC/C=C(\C)CC/C=C(\C)CC/C=C(\C)CC/C=C(\C)CCC=C(C)C)=C(C)C1=O
TGI: > 100 µM
--
compound: O=C1NC(=O)C(c2cccc(Cl)c2)=C1Nc1ccc(Cl)c(C(=O)O)c1
TGI: > 25 µM

---

- Test system: SK-MEL-5 melanoma
- test description: NCI tumour cell line growth inhibition, 48 h
measurement name: TGI

molecule: C=C(C)[C@@H]1CCc2c(O)c(O)c(=O)cc(C)c2C1
measurement name: TGI
value reported: 3.49 µM
--
molecule: CCc1ccc2oc(=O)ccc2c1
measurement name: TGI
value reported: > 100 µM
--
molecule: C=C(C(=O)OC)[C@@H]1CC2OC1C(=O)C(C)CCC/C(C)=C/CC[C@@]2(C)O (some centres undefined)
measurement name: TGI
value reported: > 100 µM
--
molecule: COC(=O)c1onc(C2OC(C)(C)OC2C(O)COC(c2ccccc2)(c2ccccc2)c2ccccc2)c1C(=O)OC (centres undefined)
measurement name: TGI
value reported: > 100 µM

---

- Test system: U251 CNS
- test description: NCI tumour cell line growth inhibition, 48 h

compound: COc1ccc(/C=c2\[nH]c3nc(=O)c(N4CCCCC4)c(N)n3c2=O)cc1
TGI: > 100 µM
//
compound: CC(=O)OCC1OC(n2c(=O)[nH]c(=O)c3n[nH]nc32)C(OC(C)=O)C(OC(C)=O)C1OC(C)=O (configuration not stated)
TGI: > 100 µM
//
compound: [N-]=[N+]=Nc1nc2ccccc2c(N=[N+]=[N-])c1Cl
TGI: > 100 µM
//
compound: O=c1[nH]n(CCc2ccccc2CCl)c2ccc([N+](=O)[O-])cc12
TGI: > 100 µM
//
compound: CN1CCN(C(=O)c2ccc(NC(=O)Nc3ccc(-c4nc(N5CCOCC5)c5cccn5n4)cc3)cc2)CC1
TGI: 10.3 µM
//
compound: Cc1cc2nc3ccccc3n2c2ccccc12
TGI: > 10 µM
//
compound: Fc1ccc2c(c1)C1=C(CCC2)C(c2ccc(Cl)cc2)NC(=S)N1 (configuration not stated)
TGI: > 100 µM

---

Each entry below lists one item and its recorded TGI value.
- Tested on: U251 CNS
- test description: NCI tumour cell line growth inhibition, 48 h

compound: CC(=O)CC(=O)N1CCSC1=S
TGI: > 10 µM
--
compound: Cc1ccccc1-n1c(=S)[nH]c2c(sc(=O)n2-c2ccccc2C)c1=O
TGI: > 100 µM
--
compound: Oc1ccc2ccccc2c1OCc1nnc(CCCCCCCCc2nnc(COc3c(O)ccc4ccccc34)n2Nc2ccccc2)n1Nc1ccccc1
TGI: > 58.9 µM
--
compound: N#C/C(=C/N1CCN(C(=O)c2ccco2)C1=S)C(=O)Nc1ccc(Cl)cc1
TGI: > 50 µM
--
compound: CC(C)[C@H](C)/C=C/[C@@H](C)C1CC[C@H]2[C@@]34C=C[C@]5(C[C@@H](O)CC[C@]5(C)[C@H]3CC[C@]12C)OO4 (stereo partly drawn)
TGI: 58.5 µM
--
compound: Cc1c(Nc2nccc3cc(CN4CC[C@@H](O)C4)cnc23)cccc1-c1cccc(-c2nc3cc(CN4CC[C@@H](C(=O)O)C4)cc(C#N)c3o2)c1C
TGI: 26.8 µM
--
compound: CCCCC#Cc1c(I)n(C2OC(CO[Si](C)(C)C(C)(C)C)C3OC(C)(C)OC32)c(=O)n(C(=O)c2ccccc2)c1=O (stereo not drawn)
TGI: > 100 µM
--
compound: COc1ccc(N2C(=O)[C@@H](N=[N+]=[N-])[C@@H]2[C@H]2COC(C)(C)O2)cc1
TGI: > 100 µM

---

- Test system: MOLT-4 leukemia
- test description: NCI tumour cell line growth inhibition, 48 h
// no strictly below 20 µM in TGI; yes otherwise

molecule: O=c1cc(-c2ccccc2)oc2c1ccc1[nH]c3ccccc3c(=O)c12
classification: yes
--
molecule: COC(=O)CCC(=O)NC1=C(Nc2ccccc2)C(=O)c2ccccc2C1=O
classification: yes
--
molecule: O=C1CCCCC/C1=C\c1cccc(F)c1
classification: yes
--
molecule: O=C1c2ccncc2C(=O)c2c(O)ccc(O)c21
classification: yes
--
molecule: CN1CCN(C(=O)c2ccc(NC(=O)Nc3ccc(-c4nc(N5CCOCC5)c5cccn5n4)cc3)cc2)CC1
classification: no
--
molecule: COc1ccc(Nc2ncnc3ccc(-c4cncc(NS(C)(=O)=O)c4)cc23)cc1Cl
classification: no
--
molecule: CCc1ccc2oc(=O)ccc2c1
classification: yes
--
molecule: Oc1cccc2c(Br)ccnc12
classification: no
--
molecule: COc1ccc(Br)c(CN2CCc3ccccc32)c1OS(=O)(=O)c1ccc(C)cc1
classification: yes
--
molecule: COc1c(C)c(C/C=C(\C)CCCC(C)CCCC(C)CCCC(C)C)c(OC)c2ccccc12 (centres undefined)
classification: yes
--
molecule: CC/C=C/c1cc2c(cc1O)CCC1C2CC[C@@]2(C)C1CC[C@@H]2O (some centres undefined)
classification: no
--
molecule: O=C(O)c1c2c(cc3c(=O)c4ccccc4[nH]c13)CCCC2
classification: yes
--
molecule: Cc1nc2ccc(Br)cc2c(=O)n1-c1ccc(N)cc1
classification: yes

---

- Tested on: HL-60(TB) leukemia
- test description: NCI tumour cell line growth inhibition, 48 h
Each entry below lists one item and its recorded TGI value.

compound: COc1ccc(-c2cc3ccccc3[nH]c2=O)cc1OC
TGI: > 100 µM
//
compound: CC(=O)/C=C/c1ccccc1
TGI: > 100 µM
//
compound: O=C(O)c1c2c(cc3c(=O)c4ccccc4[nH]c13)CCCC2
TGI: > 100 µM
//
compound: NC1CCCCC1NCCNC1CCCCC1N (configuration not stated)
TGI: > 100 µM
//
compound: COc1cc(Cl)c(CC(=O)c2c[nH]c3ccccc23)cc1OC
TGI: > 67.3 µM
//
compound: CCCCCCC(=O)C/C(CCC(=O)N(Cc1ccccc1)Cc1ccccc1)=N\NC(N)=O
TGI: > 100 µM
//
compound: Oc1c(Cl)cc2cc1-c1cc(cc(Cl)c1O)CCc1c(cc(Cl)c(O)c1Cl)-c1cc(Cl)c(c(Cl)c1O)/C=C\2
TGI: > 50 µM
//
compound: O=C(O)CSC1=NNC2(C(=O)N1)c1ccccc1-c1ccccc12
TGI: > 10 µM
//
compound: CN(C)C=N[C@@H](C(=O)O)c1ccccc1
TGI: > 100 µM
//
compound: CCCC(O)c1cn(-c2cccc(S(=O)(=O)O)c2)nn1 (configuration not stated)
TGI: > 100 µM
//
compound: [N-]=[N+]=Nc1nc2ccccc2c(N=[N+]=[N-])c1Cl
TGI: > 100 µM
//
compound: CCC(C)(O)c1cn(-c2ccc(Cl)cc2)nn1 (configuration not stated)
TGI: > 100 µM
//
compound: C=C(Br)C[N+]12CN3CN(CN(C3)C1)C2
TGI: > 100 µM
//
compound: Cc1ccccc1-n1c(=S)[nH]c2c(sc(=O)n2-c2ccccc2C)c1=O
TGI: > 100 µM
//
compound: COc1ccc(N2C(=O)[C@@H](N=[N+]=[N-])[C@@H]2[C@H]2COC(C)(C)O2)cc1
TGI: > 100 µM
//
compound: COC(=O)CC1(O)C=CC(=O)C=C1
TGI: > 22.6 µM
//
compound: COC(=O)C(=O)C(C(=O)C(=O)Nc1ccccc1[N+](=O)[O-])c1nc2ccc([N+](=O)[O-])cc2[nH]c1=O (configuration not stated)
TGI: > 100 µM
